Target: hCRTH2 receptor (Homo sapiens (Human))
Sequence (Q9Y5Y4 whole entry): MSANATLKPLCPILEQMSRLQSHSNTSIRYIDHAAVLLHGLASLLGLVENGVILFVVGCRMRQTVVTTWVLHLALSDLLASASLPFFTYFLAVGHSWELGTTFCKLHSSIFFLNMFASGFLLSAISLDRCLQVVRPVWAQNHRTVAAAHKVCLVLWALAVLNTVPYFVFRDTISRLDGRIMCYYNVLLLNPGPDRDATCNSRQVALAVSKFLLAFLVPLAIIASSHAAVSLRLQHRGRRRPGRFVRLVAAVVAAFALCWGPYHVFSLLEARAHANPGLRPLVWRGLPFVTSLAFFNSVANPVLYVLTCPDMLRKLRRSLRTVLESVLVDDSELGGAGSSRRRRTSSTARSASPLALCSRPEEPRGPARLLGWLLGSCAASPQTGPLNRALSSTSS
readout kind: log10 IC50 (log10 of the value in nM)

compound	log10 IC50
O=C(O)COc1ccc(Cl)cc1[C@@H]1c2scnc2CCN1C(=O)OCc1cccc(F)c1F	-0.30
O=C(O)COc1ccc(Cl)cc1C1c2scnc2CCN1C(=O)OCc1cc(F)ccc1F (racemic)	0.11
O=C(O)COc1ccc(Cl)cc1C1c2scnc2CCN1C(=O)CCCc1ccc(F)cc1 (racemic)	0.99
O=C(O)COc1ccc(Cl)cc1C1c2scnc2CCN1C(=O)NCc1cccc(F)c1 (racemic)	1.59
Cc1ccccc1CCC(=O)N1CCc2ncsc2C1c1cc(Cl)ccc1OCC(=O)O (racemic)	1.41
O=C(O)COc1ccc(Cl)cc1C1c2scnc2CCN1C(=O)OCc1ccc(F)cc1 (racemic)	0.28

###

pIC50: −log10 of the molar value.
For reference, pIC50 measured on hCRTH2 receptor (Homo sapiens (Human)):

compound	pIC50
COc1ccc(/C=C/C(=O)N2CCc3ncsc3C2c2cc(Cl)ccc2OCC(=O)O)cc1 (racemic)	7.39
O=C(O)COc1ccc(Cl)cc1[C@@H]1c2scnc2CCN1C(=O)OCCCF	8.85
O=C(O)COc1ccc(Cl)cc1C1c2scnc2CCN1C(=O)[C@@H]1C[C@H]1c1ccccc1Cl (mixture of isomers)	8.14
C[C@H](CC(=O)N1CCc2ncsc2C1c1cc(Cl)ccc1OCC(=O)O)c1ccccc1 (mixture of isomers)	7.91

###

pIC50: −log10 of the molar value.
Here's a batch of molecules along with measured pIC50 for hCRTH2 receptor (Homo sapiens (Human)).

molecule	pIC50
O=C(O)COc1ccc(Cl)cc1[C@@H]1c2scnc2CCN1C(=O)OCc1cc(F)ccc1Cl	9.52
CC(C)COC(=O)N1CCc2ncsc2C1c1cc(Cl)ccc1OCC(=O)O (racemic)	7.75
CCCCOC(=O)N1CCc2ncsc2C1c1cc(Cl)ccc1OCC(=O)O (racemic)	7.93
O=C(O)COc1ccc(F)cc1C1c2scnc2CCN1C(=O)OCc1ccccc1 (racemic)	8.08
O=C(O)COc1ccc(Cl)cc1C1c2scnc2CCN1C(=O)/C=C/c1ccccc1 (racemic)	7.22
O=C(O)COc1ccc(Cl)cc1[C@@H]1c2scnc2CCN1C(=O)C[C@H]1OCCc2ccccc21 (racemic)	7.00
Cc1ccc(OCC(=O)N2CCc3ncsc3C2c2cc(Cl)ccc2OCC(=O)O)c(C)n1 (racemic)	7.08
O=C(O)COc1ccc(Cl)cc1C1c2sc(NC(=O)C3CC3)nc2CCN1C(=O)OCc1ccccc1 (racemic)	6.31
O=C(O)COc1ccc(Cl)cc1C1c2scnc2CCN1C(=O)OCCc1cccc(F)c1 (racemic)	8.64
O=C(O)COc1ccc(Cl)cc1C1c2scnc2CCN1C(=O)CCOc1ccc(F)cc1 (racemic)	7.71
O=C(O)COc1ccc(Cl)cc1C1c2scnc2CCN1C(=O)OCc1cccc(F)c1F (racemic)	8.07
Cc1nc2c(s1)[C@@H](c1cc(Cl)ccc1OCC(=O)O)N(C(=O)[C@@H]1C[C@H]1c1ccccc1)CC2	8.82
O=C(O)COc1ccc(Cl)cc1C1c2scnc2CCN1C(=O)Cc1cccc2ccccc12 (racemic)	7.90
O=C(O)COc1ccc(Cl)cc1C1c2scnc2CCN1C(=O)OCc1cccc(Cl)c1Cl (racemic)	8.92
O=C(O)COc1ccc(Cl)cc1C1c2scnc2CCN1C(=O)OCc1ccccc1F (racemic)	8.52
O=C(O)COc1ccc(Cl)cc1C1c2scnc2CCN1C(=O)CC1CC1 (racemic)	7.08

###

Target: hCRTH2 receptor (Homo sapiens (Human))
Mark Criterion met only for IC50 values smaller than 6 nM; exact matches and larger values are Criterion not met.

compound	group label
Cc1nc2c(s1)[C@@H](c1cc(Cl)ccc1OCC(=O)O)N(C(=O)OCc1ccccc1)CC2 [Example 19]	Criterion met
C[C@H](Oc1ccc(Cl)cc1C1c2scnc2CCN1C(=O)OCc1ccccc1)C(=O)O (mixture of isomers) [Example 120]	Criterion not met
O=C(O)COc1ccc(Cl)cc1C1c2scnc2CCN1C(=O)/C=C/c1ccc(F)cc1F (racemic) [Example 57]	Criterion met
O=C(O)COc1ccc(Cl)cc1C1c2scnc2CCN1C(=O)CC1Cc2ccccc2C1 (racemic) [Example 46]	Criterion not met
O=C(O)COc1ccc(Cl)cc1[C@@H]1c2scnc2CCN1C(=O)OCc1ccc(F)cc1 [Example 61]	Criterion met
O=C(O)COc1ccc(Cl)cc1C1c2sc(C3CC3)nc2CCN1C(=O)OCc1ccccc1 (racemic) [Example 14]	Criterion not met
O=C(O)COc1ccc(Cl)cc1C1c2scnc2CCN1C(=O)OCc1cc(F)ccc1Cl (racemic) [Example 92]	Criterion met
COc1ccc2[nH]cc(CCC(=O)N3CCc4ncsc4C3c3cc(Cl)ccc3OCC(=O)O)c2c1 (racemic) [Example 26]	Criterion not met
O=C(O)COc1ccc(Cl)cc1C1c2scnc2CCN1C(=O)CC1CCCCC1 (racemic) [Example 48]	Criterion not met
Cc1ccc(/C=C/C(=O)N2CCc3ncsc3C2c2cc(Cl)ccc2OCC(=O)O)cc1 (racemic) [Example 56]	Criterion not met
CC(C)(C)CC(=O)N1CCc2ncsc2C1c1cc(Cl)ccc1OCC(=O)O (racemic) [Example 40]	Criterion not met
CCn1nc(C)cc1CCOC(=O)N1CCc2ncsc2C1c1cc(Cl)ccc1OCC(=O)O (racemic) [Example 91]	Criterion met
O=C(O)COc1ccc(Cl)cc1C1c2scnc2CCN1C(=O)Cc1n[nH]c2ccccc12 (racemic) [Example 44]	Criterion not met
O=C(O)COc1ccc(Cl)cc1C1c2scnc2CCN1C(=O)C1Cc2ccccc2C1 (racemic) [Example 36]	Criterion not met
